- TESTED TARGET: Aβ42 (Homo sapiens)
- TEST SUMMARY: Th-T (thioflavin-T) assay of Aβ42 aggregation
- Assay type: biochemical
- RUN CONDITIONS: head suffix _20 (concentration 20); reading M72
One threshold, 2, splits the recorded Th-T fluorescence of Aβ42 (sheet Fig. 7a), mean of three wells values: lower ones are met, equal or higher ones are not met.

- COMPOUND: "C=C1CCC2C(C)(CCC=C(C)C)C(O)CCC2(C)C1Cc1c(OC)oc(CO)c(C)c1=O (centres unmarked)"
  TESTED TARGET: "Aβ42 (Homo sapiens)"
  CATEGORY: "not met"
- COMPOUND: "C=C1CC[C@@H]2[C@](C)(CC[C@H]3O[C@H](C=C(C)C)C[C@@]23C)[C@@H]1Cc1c(OC)oc(CO)c(C)c1=O"
  TESTED TARGET: "Aβ42 (Homo sapiens)"
  CATEGORY: "not met"
- COMPOUND: "C=C1CCC2C(C)(CCC=C(C)C)C(O)CCC2(C)C1Cc1c(OC)oc(CO)c(C(=O)OC)c1=O (centres unmarked)"
  TESTED TARGET: "Aβ42 (Homo sapiens)"
  CATEGORY: "met"
- COMPOUND: "C=C1CC[C@@H]2[C@](C)(CC[C@H]3O[C@H](C=C(C)C)C[C@@]23C)[C@@H]1Cc1c(OC)oc(CO)c(C(=O)OC)c1=O"
  TESTED TARGET: "Aβ42 (Homo sapiens)"
  CATEGORY: "met"

----------
- TESTED TARGET: UniProtKB P05067
- TEST SUMMARY: Th-T (thioflavin-T) assay of Aβ42 aggregation
- Format: biochemical
- RUN CONDITIONS: compound at 50; reading M50 of time course
# Th-T fluorescence, mean of three wells >= 1 gives class 1, anything below gives class 0

- MOLECULE: "C=C1CCC2C(C)(CCC=C(C)C)C(O)CCC2(C)C1Cc1c(OC)oc(CO)c(C(=O)OC)c1=O (centres unmarked)"
  CATEGORY: "class 0"
- MOLECULE: "C=C1CC[C@@H]2[C@](C)(CC[C@H]3O[C@H](C=C(C)C)C[C@@]23C)[C@@H]1Cc1c(OC)oc(CO)c(C(=O)OC)c1=O"
  CATEGORY: "class 0"
- MOLECULE: "C=C1CCC2C(C)(CCC=C(C)C)C(O)CCC2(C)C1Cc1c(OC)oc(CO)c(C)c1=O (centres unmarked)"
  CATEGORY: "class 1"
- MOLECULE: "C=C1CC[C@@H]2[C@](C)(CC[C@H]3O[C@H](C=C(C)C)C[C@@]23C)[C@@H]1Cc1c(OC)oc(CO)c(C)c1=O"
  CATEGORY: "class 1"
- MOLECULE: "C=C1CCC2C(C)(CCC=C(C)C)C(O)CCC2(C)C1Cc1c(OC)oc(C)c(C(=O)OC)c1=O (centres unmarked)"
  CATEGORY: "class 1"

----------
- TESTED TARGET: Aβ42 (Homo sapiens)
- TEST SUMMARY: Th-T (thioflavin-T) assay of Aβ42 aggregation
- Format: biochemical
- RUN CONDITIONS: reading M110; compound at 10 (head suffix _10)
RECORDED METRIC: Th-T fluorescence, mean of three wells (Fig. 7a)

- COMPOUND: "C=C1CC[C@@H]2[C@](C)(CC[C@H]3O[C@H](C=C(C)C)C[C@@]23C)[C@@H]1Cc1c(OC)oc(CO)c(C)c1=O"
  TESTED TARGET: "Aβ42 (Homo sapiens)"
  MEASURED RESULT: 3.266
- COMPOUND: "C=C1CC[C@@H]2[C@](C)(CC[C@H]3O[C@H](C=C(C)C)C[C@@]23C)[C@@H]1Cc1c(OC)oc(CO)c(C(=O)OC)c1=O"
  TESTED TARGET: "Aβ42 (Homo sapiens)"
  MEASURED RESULT: 1.6563
- COMPOUND: "C=C1CCC2C(C)(CCC=C(C)C)C(O)CCC2(C)C1Cc1c(OC)oc(C)c(C(=O)OC)c1=O (centres unmarked)"
  TESTED TARGET: "Aβ42 (Homo sapiens)"
  MEASURED RESULT: 2.89
- COMPOUND: "C=C1CCC2C(C)(CCC=C(C)C)C(O)CCC2(C)C1Cc1c(OC)oc(CO)c(C(=O)OC)c1=O (centres unmarked)"
  TESTED TARGET: "Aβ42 (Homo sapiens)"
  MEASURED RESULT: 1.549
- COMPOUND: "C=C1CCC2C(C)(CCC=C(C)C)C(O)CCC2(C)C1Cc1c(OC)oc(CO)c(C)c1=O (centres unmarked)"
  TESTED TARGET: "Aβ42 (Homo sapiens)"
  MEASURED RESULT: 2.701

----------
- TESTED TARGET: Aβ42 (Homo sapiens, UniProt P05067)
- Sequence (P05067 672-713): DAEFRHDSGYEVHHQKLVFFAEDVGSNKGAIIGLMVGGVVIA
- TEST SUMMARY: Th-T (thioflavin-T) assay of Aβ42 aggregation
- Assay type: biochemical
- RUN CONDITIONS: column suffix _50; reading M14
Entries annotated with measured Th-T assay signal, mean of three wells (Fig. 7a)
RECORDED METRIC: Th-T assay signal, mean of three wells (Fig. 7a)

- COMPOUND: "C=C1CC[C@@H]2[C@](C)(CC[C@H]3O[C@H](C=C(C)C)C[C@@]23C)[C@@H]1Cc1c(OC)oc(CO)c(C(=O)OC)c1=O"
  MEASURED RESULT: 0.2061
- COMPOUND: "C=C1CCC2C(C)(CCC=C(C)C)C(O)CCC2(C)C1Cc1c(OC)oc(CO)c(C)c1=O (centres unmarked)"
  MEASURED RESULT: 1.819
- COMPOUND: "C=C1CC[C@@H]2[C@](C)(CC[C@H]3O[C@H](C=C(C)C)C[C@@]23C)[C@@H]1Cc1c(OC)oc(CO)c(C)c1=O"
  MEASURED RESULT: 2.101
- COMPOUND: "C=C1CCC2C(C)(CCC=C(C)C)C(O)CCC2(C)C1Cc1c(OC)oc(C)c(C(=O)OC)c1=O (centres unmarked)"
  MEASURED RESULT: 0.4784
- COMPOUND: "C=C1CCC2C(C)(CCC=C(C)C)C(O)CCC2(C)C1Cc1c(OC)oc(CO)c(C(=O)OC)c1=O (centres unmarked)"
  MEASURED RESULT: 0.1691

----------
- TESTED TARGET: Aβ42 (Homo sapiens, UniProt P05067)
- TEST SUMMARY: Th-T (thioflavin-T) assay of Aβ42 aggregation
- Type: biochemical
- RUN CONDITIONS: column suffix _50; reading M11
Below is a list of entries, each paired with its recorded Th-T assay signal, mean of three wells (Fig. 7a) value.
RECORDED METRIC: Th-T assay signal, mean of three wells (Fig. 7a)

- MOLECULE: "C=C1CC[C@@H]2[C@](C)(CC[C@H]3O[C@H](C=C(C)C)C[C@@]23C)[C@@H]1Cc1c(OC)oc(CO)c(C(=O)OC)c1=O"
  MEASURED RESULT: 0.2085
- MOLECULE: "C=C1CCC2C(C)(CCC=C(C)C)C(O)CCC2(C)C1Cc1c(OC)oc(CO)c(C)c1=O (centres unmarked)"
  MEASURED RESULT: 1.977
- MOLECULE: "C=C1CCC2C(C)(CCC=C(C)C)C(O)CCC2(C)C1Cc1c(OC)oc(CO)c(C(=O)OC)c1=O (centres unmarked)"
  MEASURED RESULT: 0.1659
- MOLECULE: "C=C1CCC2C(C)(CCC=C(C)C)C(O)CCC2(C)C1Cc1c(OC)oc(C)c(C(=O)OC)c1=O (centres unmarked)"
  MEASURED RESULT: 0.4593
- MOLECULE: "C=C1CC[C@@H]2[C@](C)(CC[C@H]3O[C@H](C=C(C)C)C[C@@]23C)[C@@H]1Cc1c(OC)oc(CO)c(C)c1=O"
  MEASURED RESULT: 1.605

----------
Examples of molecules with documented Th-T fluorescence, mean of three wells (Fig. 7a) follow.
- TESTED TARGET: Aβ42 (Homo sapiens, UniProt P05067)
- TEST SUMMARY: Th-T (thioflavin-T) assay of Aβ42 aggregation
- Type: biochemical
- RUN CONDITIONS: reading M108; compound at 20 (head suffix _20)
RECORDED METRIC: Th-T fluorescence, mean of three wells (Fig. 7a)

- MOLECULE: "C=C1CC[C@@H]2[C@](C)(CC[C@H]3O[C@H](C=C(C)C)C[C@@]23C)[C@@H]1Cc1c(OC)oc(CO)c(C(=O)OC)c1=O"
  MEASURED RESULT: 0.9316
- MOLECULE: "C=C1CCC2C(C)(CCC=C(C)C)C(O)CCC2(C)C1Cc1c(OC)oc(C)c(C(=O)OC)c1=O (centres unmarked)"
  MEASURED RESULT: 1.693
- MOLECULE: "C=C1CCC2C(C)(CCC=C(C)C)C(O)CCC2(C)C1Cc1c(OC)oc(CO)c(C(=O)OC)c1=O (centres unmarked)"
  MEASURED RESULT: 1.036
- MOLECULE: "C=C1CCC2C(C)(CCC=C(C)C)C(O)CCC2(C)C1Cc1c(OC)oc(CO)c(C)c1=O (centres unmarked)"
  MEASURED RESULT: 2.099
- MOLECULE: "C=C1CC[C@@H]2[C@](C)(CC[C@H]3O[C@H](C=C(C)C)C[C@@]23C)[C@@H]1Cc1c(OC)oc(CO)c(C)c1=O"
  MEASURED RESULT: 3.22

Data provenance: paper PMC7156458
